target under test: Voltage-dependent L-type calcium channel subunit alpha-1D (Rattus norvegicus, UniProt P27732)
Sequence (P27732 whole entry): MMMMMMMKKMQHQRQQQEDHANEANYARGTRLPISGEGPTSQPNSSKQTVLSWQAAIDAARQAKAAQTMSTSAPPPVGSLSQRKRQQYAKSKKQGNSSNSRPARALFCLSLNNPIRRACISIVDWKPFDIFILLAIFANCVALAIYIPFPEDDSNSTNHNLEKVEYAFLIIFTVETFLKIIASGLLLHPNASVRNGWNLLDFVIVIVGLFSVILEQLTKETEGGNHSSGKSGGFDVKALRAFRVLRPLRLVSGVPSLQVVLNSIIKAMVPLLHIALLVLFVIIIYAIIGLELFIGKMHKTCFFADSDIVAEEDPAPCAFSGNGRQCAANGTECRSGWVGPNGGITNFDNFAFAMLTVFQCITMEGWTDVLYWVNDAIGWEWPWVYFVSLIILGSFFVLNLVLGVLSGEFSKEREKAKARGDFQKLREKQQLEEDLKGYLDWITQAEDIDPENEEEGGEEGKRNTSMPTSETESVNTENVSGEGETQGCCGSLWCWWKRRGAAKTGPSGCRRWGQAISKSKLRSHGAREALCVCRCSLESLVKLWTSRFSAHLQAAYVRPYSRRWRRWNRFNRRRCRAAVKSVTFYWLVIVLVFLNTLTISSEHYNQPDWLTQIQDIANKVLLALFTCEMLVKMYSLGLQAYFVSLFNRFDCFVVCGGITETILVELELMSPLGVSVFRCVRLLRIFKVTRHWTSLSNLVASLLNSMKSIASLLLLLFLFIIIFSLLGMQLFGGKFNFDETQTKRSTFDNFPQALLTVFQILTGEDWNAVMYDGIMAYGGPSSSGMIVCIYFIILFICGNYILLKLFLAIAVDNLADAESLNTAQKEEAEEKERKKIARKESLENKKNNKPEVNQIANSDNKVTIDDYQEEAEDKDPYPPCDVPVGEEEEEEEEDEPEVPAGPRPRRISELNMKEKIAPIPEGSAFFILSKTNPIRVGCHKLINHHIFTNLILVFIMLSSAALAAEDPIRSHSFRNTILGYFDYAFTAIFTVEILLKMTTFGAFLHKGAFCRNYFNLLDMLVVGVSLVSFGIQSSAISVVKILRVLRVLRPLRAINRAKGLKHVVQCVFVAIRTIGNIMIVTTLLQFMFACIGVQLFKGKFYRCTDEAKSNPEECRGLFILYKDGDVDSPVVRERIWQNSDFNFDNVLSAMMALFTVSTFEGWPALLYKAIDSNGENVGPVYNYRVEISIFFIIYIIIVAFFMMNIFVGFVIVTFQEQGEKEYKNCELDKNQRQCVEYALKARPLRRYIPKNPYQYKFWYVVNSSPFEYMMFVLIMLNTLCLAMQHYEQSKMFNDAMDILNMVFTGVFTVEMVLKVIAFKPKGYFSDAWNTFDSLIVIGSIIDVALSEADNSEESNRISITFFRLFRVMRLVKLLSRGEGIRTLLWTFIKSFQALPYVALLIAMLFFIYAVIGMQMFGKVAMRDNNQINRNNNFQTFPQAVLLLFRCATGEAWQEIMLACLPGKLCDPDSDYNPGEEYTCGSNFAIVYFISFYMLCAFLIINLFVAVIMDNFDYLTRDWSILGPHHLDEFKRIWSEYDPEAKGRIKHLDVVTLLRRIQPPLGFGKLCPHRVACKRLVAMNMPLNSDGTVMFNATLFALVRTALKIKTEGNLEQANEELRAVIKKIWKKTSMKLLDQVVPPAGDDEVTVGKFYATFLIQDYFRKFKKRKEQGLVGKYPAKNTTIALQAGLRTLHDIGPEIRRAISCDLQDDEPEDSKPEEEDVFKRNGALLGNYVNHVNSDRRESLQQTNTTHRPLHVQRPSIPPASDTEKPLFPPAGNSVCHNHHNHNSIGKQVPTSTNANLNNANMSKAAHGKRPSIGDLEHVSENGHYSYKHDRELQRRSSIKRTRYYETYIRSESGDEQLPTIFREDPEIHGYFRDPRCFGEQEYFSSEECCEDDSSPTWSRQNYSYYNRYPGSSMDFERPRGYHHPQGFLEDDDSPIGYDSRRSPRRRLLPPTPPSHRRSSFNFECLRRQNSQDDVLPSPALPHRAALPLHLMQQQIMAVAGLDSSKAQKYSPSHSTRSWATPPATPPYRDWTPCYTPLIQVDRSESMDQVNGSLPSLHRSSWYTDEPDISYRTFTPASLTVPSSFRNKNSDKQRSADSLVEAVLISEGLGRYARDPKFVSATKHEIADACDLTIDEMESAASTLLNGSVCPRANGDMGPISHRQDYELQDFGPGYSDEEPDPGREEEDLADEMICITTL
protocol notes: Antagonist activity at rat CaV1.3alpha1D transfected in HEK293 cells by FLIPR assay
measured quantity: IC50

Note down IC50 recorded for `O=C1CC(=O)N([C@H]2C[C@H]3CC[C@@H]2C3)C(=O)N1CCc1cccc(C(F)(F)F)c1`
3 µM

Note down IC50 recorded for `CC1(C)CCC[C@H]1N1C(=O)CC(=O)N(CCc2cccc(Cl)c2)C1=O`
2.5 µM

Note down IC50 recorded for `O=C1CC(=O)N([C@H]2CCNC2)C(=O)N1CCc1cccc(Cl)c1`
> 100 µM

Note down IC50 recorded for `O=C1CC(=O)N(C2CCCC2)C(=O)N1CCc1ccc(OCc2ccccc2)cc1`
34.1 µM

Note down IC50 recorded for `COC(=O)[C@H](Cc1ccccc1)N1C(=O)CC(=O)N(C2CCCC2)C1=O`
> 100 µM

###

protocol notes: Selectivity ratio of IC50 for rabbit CaV1.2alpha1C to IC50 for rat CaV1.3alpha1D
So I've got a bunch of compounds here, and I need their Ratio IC50 values.
No unit in the answer, only the number.

Note down Ratio IC50 recorded for `CC(=O)O[C@@H]1CCC[C@@H]1N1C(=O)CC(=O)N(CCc2cccc(Cl)c2)C1=O`
0.6

Note down Ratio IC50 recorded for `CC1(C)CCC[C@@H]1N1C(=O)CC(=O)N(CCc2cccc(Cl)c2)C1=O`
1.6

Note down Ratio IC50 recorded for `O=C1CC(=O)N(C2CCCC2)C(=O)N1CCc1ccc(Cl)c(Cl)c1`
2.7

Note down Ratio IC50 recorded for `O=C(OCCc1cccc(F)c1)[C@H]1CC[C@@H](N2C(=O)CC(=O)N(CCc3cccc(Cl)c3)C2=O)C1`
0.7

Note down Ratio IC50 recorded for O=C1CC(=O)N(C2CC3CCC2C3)C(=O)N1CCc1ccc(Cl)cc1 (mixture of isomers)
8.9

###

So I've got a bunch of molecules here, and I need their Ratio IC50 values.
protocol notes: Selectivity ratio of IC50 for rabbit CaV1.2alpha1C to IC50 for rat CaV1.3alpha1D
No unit in the answer, only the number.

Note down Ratio IC50 recorded for `O=C1CC(=O)N(C2CCCC2)C(=O)N1CC(c1ccccc1)c1ccccc1`
1.6

Note down Ratio IC50 recorded for `O=C1CC(=O)N(C2CCCC2)C(=O)N1CCc1ccc(OCc2ccccc2)cc1`
0.5

Note down Ratio IC50 recorded for CC(CN1C(=O)CC(=O)N(C2CC3CCC2C3)C1=O)c1cccc(Cl)c1 (mixture of isomers)
2.1

Note down Ratio IC50 recorded for `O=C1CC(=O)N(C2CCCC2)C(=O)N1CCc1cc(C(F)(F)F)cc(C(F)(F)F)c1`
1.8

Note down Ratio IC50 recorded for `CC1(C)CCC[C@H]1N1C(=O)CC(=O)N(CCc2cccc(Cl)c2)C1=O`
1.9

###

So I've got a bunch of compounds here, and I need their log10 of IC50 values.
target under test: Voltage-dependent L-type calcium channel subunit alpha-1C (Oryctolagus cuniculus, UniProt P15381)
Sequence (P15381 whole entry): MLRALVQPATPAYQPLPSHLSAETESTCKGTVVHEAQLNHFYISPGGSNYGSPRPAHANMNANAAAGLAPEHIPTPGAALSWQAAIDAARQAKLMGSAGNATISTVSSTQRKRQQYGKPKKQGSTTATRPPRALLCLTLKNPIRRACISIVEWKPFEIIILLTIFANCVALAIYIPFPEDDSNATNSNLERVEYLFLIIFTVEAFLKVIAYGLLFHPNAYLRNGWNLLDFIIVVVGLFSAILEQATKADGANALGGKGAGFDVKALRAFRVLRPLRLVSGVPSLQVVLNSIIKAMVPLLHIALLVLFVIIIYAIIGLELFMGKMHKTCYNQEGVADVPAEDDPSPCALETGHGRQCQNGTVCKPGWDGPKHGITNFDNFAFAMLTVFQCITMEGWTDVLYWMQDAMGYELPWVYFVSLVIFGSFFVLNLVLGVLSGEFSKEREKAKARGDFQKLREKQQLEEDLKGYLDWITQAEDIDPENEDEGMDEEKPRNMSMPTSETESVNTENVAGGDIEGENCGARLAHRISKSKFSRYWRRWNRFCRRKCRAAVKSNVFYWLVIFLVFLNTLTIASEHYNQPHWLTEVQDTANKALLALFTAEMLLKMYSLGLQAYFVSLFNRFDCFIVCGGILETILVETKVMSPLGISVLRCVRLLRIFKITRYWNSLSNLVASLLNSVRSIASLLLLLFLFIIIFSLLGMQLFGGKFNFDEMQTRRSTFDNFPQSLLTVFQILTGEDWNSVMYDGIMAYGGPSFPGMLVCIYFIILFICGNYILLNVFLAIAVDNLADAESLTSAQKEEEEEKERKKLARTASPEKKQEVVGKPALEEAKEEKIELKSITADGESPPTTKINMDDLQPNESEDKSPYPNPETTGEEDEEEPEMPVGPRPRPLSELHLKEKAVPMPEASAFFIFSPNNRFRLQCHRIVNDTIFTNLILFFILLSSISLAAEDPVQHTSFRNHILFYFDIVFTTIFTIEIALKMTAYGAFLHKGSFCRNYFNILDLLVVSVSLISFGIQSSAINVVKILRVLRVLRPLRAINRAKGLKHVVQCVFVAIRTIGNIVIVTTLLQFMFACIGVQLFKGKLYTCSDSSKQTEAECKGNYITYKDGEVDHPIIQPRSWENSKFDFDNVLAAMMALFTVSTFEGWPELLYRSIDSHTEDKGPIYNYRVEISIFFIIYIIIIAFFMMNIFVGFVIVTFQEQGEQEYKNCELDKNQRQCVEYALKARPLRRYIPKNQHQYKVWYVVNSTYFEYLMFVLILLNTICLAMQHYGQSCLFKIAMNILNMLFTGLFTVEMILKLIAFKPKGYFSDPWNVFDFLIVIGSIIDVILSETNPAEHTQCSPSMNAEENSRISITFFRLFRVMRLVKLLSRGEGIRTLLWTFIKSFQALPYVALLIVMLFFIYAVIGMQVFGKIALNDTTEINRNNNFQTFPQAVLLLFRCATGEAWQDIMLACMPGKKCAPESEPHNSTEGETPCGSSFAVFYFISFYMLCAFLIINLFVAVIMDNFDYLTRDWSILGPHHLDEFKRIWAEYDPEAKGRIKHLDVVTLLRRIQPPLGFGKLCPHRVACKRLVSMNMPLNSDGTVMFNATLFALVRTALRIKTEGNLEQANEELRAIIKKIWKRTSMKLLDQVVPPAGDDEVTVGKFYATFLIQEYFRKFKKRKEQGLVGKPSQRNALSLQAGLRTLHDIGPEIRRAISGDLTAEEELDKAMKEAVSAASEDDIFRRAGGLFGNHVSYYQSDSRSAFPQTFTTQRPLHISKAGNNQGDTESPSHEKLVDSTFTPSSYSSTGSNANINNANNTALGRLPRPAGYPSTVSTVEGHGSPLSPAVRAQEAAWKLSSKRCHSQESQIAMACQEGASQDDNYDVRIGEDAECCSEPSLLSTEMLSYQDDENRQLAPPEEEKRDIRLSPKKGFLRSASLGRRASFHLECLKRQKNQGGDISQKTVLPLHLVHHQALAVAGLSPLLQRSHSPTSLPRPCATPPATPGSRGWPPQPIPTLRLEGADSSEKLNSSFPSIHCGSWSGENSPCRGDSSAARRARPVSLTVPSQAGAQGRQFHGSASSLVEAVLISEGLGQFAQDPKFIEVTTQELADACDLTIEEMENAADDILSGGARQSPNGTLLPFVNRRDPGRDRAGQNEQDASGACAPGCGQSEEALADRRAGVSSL
protocol notes: Antagonist activity at rabbit CaV1.2alpha1C transfected in HEK293 cells by FLIPR assay
The base-10 logarithm of IC50, taken with IC50 in µM, is what appears here.

Note down log10 of IC50 recorded for `C[C@@H]1CCC[C@@H]1N1C(=O)CC(=O)N(CCc2cccc(Cl)c2)C1=O`
1.11

Note down log10 of IC50 recorded for O=C1CC(=O)N(C2CCCc3ccccc32)C(=O)N1C1CCCC1 (centres undefined)
1.30

Note down log10 of IC50 recorded for `C[C@H]1CCC[C@H]1N1C(=O)CC(=O)N(CCc2ccc(Cl)cc2)C1=O`
1.00

Note down log10 of IC50 recorded for `O=C(OCCc1cccc(F)c1)[C@H]1CC[C@@H](N2C(=O)CC(=O)N(CCc3cccc(Cl)c3)C2=O)C1`
0.83

Note down log10 of IC50 recorded for CCC1CCC(N2C(=O)CC(=O)N(CCc3cccc(Cl)c3)C2=O)C1 (centres undefined)
1.18

Note down log10 of IC50 recorded for CC(Cc1ccc(Cl)cc1)N1C(=O)CC(=O)N(C2CC3CCC2C3)C1=O (racemic)
0.61

Note down log10 of IC50 recorded for CCC1CCC(N2C(=O)CC(=O)N(CCc3ccc(Cl)cc3)C2=O)C1 (racemic)
1.46

Note down log10 of IC50 recorded for `COC(=O)[C@@H](Cc1ccccc1)N1C(=O)CC(=O)N(C2CCCC2)C1=O`
1.65

###

So I've got a bunch of compounds here, and I need their pIC50 values.
target under test: Voltage-dependent L-type calcium channel subunit alpha-1C (Oryctolagus cuniculus, UniProt P15381)
protocol notes: Antagonist activity at rabbit CaV1.2alpha1C transfected in HEK293 cells by FLIPR assay
Assay type: cell-based
Just so you know, pIC50 here is -log10 of the concentration in molar units; reply with that number alone.

Note down pIC50 recorded for `O=C1CC(=O)N(C[C@H]2CCCO2)C(=O)N1CCc1cccc(Cl)c1`
4.39

Note down pIC50 recorded for `C[C@H]1CCCC[C@H]1N1C(=O)CC(=O)N(CCc2ccc(Cl)cc2)C1=O`
5.08

Note down pIC50 recorded for CC1CCC(N2C(=O)CC(=O)N(CCc3cccc(Cl)c3)C2=O)CC1 (configuration not stated)
4.34

Note down pIC50 recorded for `O=C1CC(=O)N(C2CCCC2)C(=O)N1Cc1cccc(Cl)c1`
4.33

Note down pIC50 recorded for CC(C)(CN1C(=O)CC(=O)N(C2CC3CCC2C3)C1=O)c1cccc(Cl)c1 (mixture of isomers)
5.55

Note down pIC50 recorded for `CC(C)c1ccc(CCN2C(=O)CC(=O)N(C3CCCC3)C2=O)cc1`
4.24

Note down pIC50 recorded for `CC1(C)[C@@H]2CC[C@H](CN3C(=O)CC(=O)N(CCc4cccc(Cl)c4)C3=O)[C@H]1C2`
4.33

###

target under test: Voltage-dependent L-type calcium channel subunit alpha-1D (Rattus norvegicus, UniProt P27732)
protocol notes: Antagonist activity at rat CaV1.3alpha1D transfected in HEK293 cells by FLIPR assay
So I've got a bunch of molecules here, and I need their pIC50 values.
Just so you know, pIC50 here is -log10 of the concentration in molar units; reply with that number alone.

Note down pIC50 recorded for `O=C(OCCc1cccc(F)c1)[C@H]1CC[C@@H](N2C(=O)CC(=O)N(CCc3cccc(Cl)c3)C2=O)C1`
5.01

Note down pIC50 recorded for `O=C1CC(=O)N(C2CCCC2)C(=O)N1CCCc1ccccc1`
5.12

Note down pIC50 recorded for `O=C1CC(=O)N(C2CCCC2)C(=O)N1CC1(c2ccc(Cl)cc2)CC1`
5.14

Note down pIC50 recorded for COC(=O)C(Cc1ccc(Cl)cc1)N1C(=O)CC(=O)N(C2CCCC2)C1=O (configuration not stated)
5.12

Note down pIC50 recorded for `CC(C)OC(=O)[C@H]1CC[C@@H](N2C(=O)CC(=O)N(CCc3cccc(Cl)c3)C2=O)C1`
4.98

Note down pIC50 recorded for `C[C@H](C1CCCCC1)N1C(=O)CC(=O)N(CCc2cccc(Cl)c2)C1=O`
5.01

Note down pIC50 recorded for `C[C@H](c1cccc2ccccc12)N1C(=O)CC(=O)N(CCc2cccc(Cl)c2)C1=O`
4.97

###

So I've got a bunch of molecules here, and I need their Ratio IC50 values.
protocol notes: Selectivity ratio of IC50 for rabbit CaV1.2alpha1C to IC50 for rat CaV1.3alpha1D

Note down Ratio IC50 recorded for `C[C@@H](C1CCCCC1)N1C(=O)CC(=O)N(CCc2ccc(Cl)cc2)C1=O`
> 12

Note down Ratio IC50 recorded for `C[C@H](C1CCCCC1)N1C(=O)CC(=O)N(CCc2ccc(Cl)cc2)C1=O`
> 12

Note down Ratio IC50 recorded for `O=C1CC(=O)N([C@@H]2C[C@@H]3CC[C@H]2C3)C(=O)N1CCc1cccc(Cl)c1`
> 50

Note down Ratio IC50 recorded for COc1ccc(CCN(C)CCCC(C#N)(c2ccc(OC)c(OC)c2)C(C)C)cc1OC (centres undefined)
< 2

###

protocol notes: Selectivity ratio of IC50 for rabbit CaV1.2alpha1C to IC50 for rat CaV1.3alpha1D
measured quantity: Ratio IC50

Note down Ratio IC50 recorded for COC(=O)C1=C(C)NC(C)=C(C(=O)OC(C)C)C1c1cccc2nonc12 (centres undefined)
< 2

Note down Ratio IC50 recorded for `COc1ccc([C@@H]2Sc3ccccc3N(CCN(C)C)C(=O)[C@@H]2OC(C)=O)cc1`
< 2

Note down Ratio IC50 recorded for COC(=O)C1=C(C)NC(=S)N(C(=O)OC(C)C)C1c1cccc([N+](=O)[O-])c1 (centres undefined)
< 2

Note down Ratio IC50 recorded for `O=C1CC(=O)N([C@H]2C[C@H]3CC[C@@H]2C3)C(=O)N1CCc1cccc(Cl)c1`
> 29
